Test: Plasma protein binding, equilibrium dialysis
Format: in vitro ADME
Conditions: human, pH 7.2
Measure: fraction unbound at 6 h

1. Cc1ccsc1C(=O)Nc1cc(CN2CCN(C(=O)CO)CC2)ccc1/C=C/c1n[nH]c2ccccc12 [KW‐2450] :: 0.009 to 0.016

====

Experiment: Phase I first-in-human study: pharmacokinetics
Format: in vivo
Settings: human, plasma, oral, 50 mg, Mean elimination half‐life, range across dose levels and day measured, patients, 37.5 and 50 mg, days 1 and 28
Measure: half-life

1) Cc1ccsc1C(=O)Nc1cc(CN2CCN(C(=O)CO)CC2)ccc1/C=C/c1n[nH]c2ccccc12 :: 9.74 to 13 h

====

Assay: Phase I first-in-human study: pharmacokinetics
Assay type: in vivo
Details: human, plasma, po, 37.5 mg/day, VZ/F, patients, oral 37.5 mg/day, Day 28, n = 4, mean ± SD
Measure: Vd/F (L)

1) Cc1ccsc1C(=O)Nc1cc(CN2CCN(C(=O)CO)CC2)ccc1/C=C/c1n[nH]c2ccccc12 :: 23.7

====

Assay: Pharmacokinetic study in mice, single oral dose
Format: in vivo, mouse
Settings: male, SCID, mouse, plasma, po, 20 mg/kg
Measure: half-life

1. Cc1ccsc1C(=O)Nc1cc(CN2CCN(C(=O)CO)CC2)ccc1/C=C/c1n[nH]c2ccccc12 [KW‐2450] :: 3.71 to 3.99 h
